Where these numbers come from: patent US6369225B1

Target: RARγ (Homo sapiens)
Sequence (P13631 whole entry, species assumed): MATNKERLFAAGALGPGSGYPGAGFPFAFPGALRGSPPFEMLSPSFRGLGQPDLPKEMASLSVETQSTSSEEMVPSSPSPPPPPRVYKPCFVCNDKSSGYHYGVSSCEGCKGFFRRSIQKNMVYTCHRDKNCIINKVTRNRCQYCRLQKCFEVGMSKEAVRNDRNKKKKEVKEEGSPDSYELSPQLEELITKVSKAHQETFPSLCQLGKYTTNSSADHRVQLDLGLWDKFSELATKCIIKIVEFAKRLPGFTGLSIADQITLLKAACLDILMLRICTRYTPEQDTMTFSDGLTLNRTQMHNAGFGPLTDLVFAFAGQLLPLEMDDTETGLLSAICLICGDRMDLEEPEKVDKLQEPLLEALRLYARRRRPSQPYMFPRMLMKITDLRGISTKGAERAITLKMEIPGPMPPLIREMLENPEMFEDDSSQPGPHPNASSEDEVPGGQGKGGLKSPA
Test: ligand binding assay, RARγ
Conditions: Kd line of EC50/(EFFICACY)/Kd, read-out: RAR Kd γ
measurement.kind: pKd
Reminder that pKd is minus the log10 of a molar concentration.

# compound, pKd
data = [
    ("CCc1cc(C#Cc2ccc(C(=O)O)cc2)ccc1C1(OCc2ccccc2)CC1 [Compound 93]", 6.45),
    ("Cc1cc(C#Cc2ccc(C(=O)O)cc2)ccc1C1(OC(C)C)CC1 [Compound 85]", 6.52),
    ("Cc1cc(C#Cc2ccc(C(=O)O)cc2)ccc1C1(OCC(C)(C)C)CC1 [Compound 89]", 6.32),
    ("COC1(c2ccc(C#Cc3ccc(C(=O)O)cc3)cc2)CC1 [Compound 69]", 6.30),
    ("CC1(C)CC(C)(C)c2cc(C#Cc3ccc(CC(=O)O)c(F)c3)ccc2O1 [Compound 32]", 4.89),
    ("CC1(C)CC(C)(C)c2cc(C#Cc3ccc(C(=O)O)c(F)c3)ccc2O1 [Compound 30]", 7.08),
]

q: Entry CN(C1CC1)C1CCC(C)(C)c2cc(C#Cc3ccc(CC(=O)O)cc3)ccc21 (centres unmarked) [Compound 8] : reported pKd = ?
a: 4.60

q: Now this one: CC1(C)CC2(CC2)Oc2ccc(C#Cc3ccc(C(=O)O)c(F)c3)cc21 [Compound 44]
a: 6.41

###

Test system: skin of hairless mice
Assay: topical skin irritation test in hairless mice
Format: in vivo, mouse
Conditions: 1000 nmole (nmol/25 g), topical in acetone, once daily days 1 through 5; mean ±SD, range 0-21
# Cutaneous Toxicity Score (Blackjack Score) per record follows

Sample answers from the record:
# compound, experimental.target, result
rows = [
    ("CC1(C)CC2(CC2)Oc2c(C3CC3)cc(C#Cc3ccc(CC(=O)O)cc3)cc21", "skin of hairless mice", "7 ± 2"),
    ("CC1(C)CCC(n2ccnc2)c2ccc(C#Cc3ccc(CC(=O)O)cc3)cc21 (stereo not drawn)", "skin of hairless mice", "5 ± 2"),
]

Next:
q: Entry CC1(C)CC(C)(C)c2cc(C#Cc3ccc(CC(=O)O)cc3)cc(C3CC3)c2O1 : reported Cutaneous Toxicity Score (Blackjack Score) = ?
a: 11 ± 0

###

# log10 of Kd per record follows
Target: RARβ (Homo sapiens, UniProt P10826)
Sequence (P10826 whole entry, species assumed): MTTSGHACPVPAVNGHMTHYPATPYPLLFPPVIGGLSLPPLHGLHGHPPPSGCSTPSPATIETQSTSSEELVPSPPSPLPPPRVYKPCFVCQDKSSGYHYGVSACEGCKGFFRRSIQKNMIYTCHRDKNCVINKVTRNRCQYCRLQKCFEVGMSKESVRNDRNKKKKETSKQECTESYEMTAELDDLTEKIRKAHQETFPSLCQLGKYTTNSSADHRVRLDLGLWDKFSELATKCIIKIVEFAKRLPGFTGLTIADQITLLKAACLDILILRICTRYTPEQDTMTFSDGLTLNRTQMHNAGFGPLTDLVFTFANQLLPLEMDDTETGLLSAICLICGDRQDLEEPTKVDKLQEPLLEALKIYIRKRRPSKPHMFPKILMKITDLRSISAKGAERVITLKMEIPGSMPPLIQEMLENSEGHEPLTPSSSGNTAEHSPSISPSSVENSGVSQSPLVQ
Heads up: the numbers are on a log10 scale; they represent Kd in nM.

Sample answers from the record:
# compound, experimental.target, log10 of Kd
rows = [
    ("CC1(C)CC(C)(C)c2cc(C#Cc3ccc(CC(=O)O)cc3)cc(C3CC3)c2O1 [Compound 36]", "RARβ (Homo sapiens, UniProt P10826)", 3.69),
    ("Cc1cc(C#Cc2ccc(C(=O)O)cc2)ccc1C1(OCc2ccccc2)CC1 [Compound 81]", "RARβ (Homo sapiens, UniProt P10826)", 2.93),
    ("Cc1cc(C#Cc2ccc(C(=O)O)cc2)ccc1C1(OC(C)C)CC1 [Compound 85]", "RARβ (Homo sapiens, UniProt P10826)", 2.38),
    ("CN(C1CC1)C1CCC(C)(C)c2cc(C#Cc3ccc(CC(=O)O)cc3)ccc21 (stereo not drawn) [Compound 8]", "RARβ (Homo sapiens, UniProt P10826)", 3.58),
    ("CC1(C)CC(C)(C)c2cc(C#Cc3ccc(CC(=O)O)cc3)ccc2O1 [Compound 28]", "RARβ (Homo sapiens, UniProt P10826)", 3.63),
]

q: Entry O=C(O)c1ccc(C#Cc2ccc(C3(NCc4ccccc4)CC3)cc2)cc1 [Compound 112] : reported log10 of Kd = ?
a: 2.85

q: Now this one: Cc1cc(C#Cc2ccc(C(=O)O)cc2)ccc1C1(OCC(C)(C)C)CC1 [Compound 89]
a: 2.99

q: Now this one: CC1(C)CCC(=O)c2ccc(C#Cc3ccc(CC(=O)O)cc3)cc21 [Compound 5]
a: 3.45
